Reference source for all entries: patent US8426412B2

Tested on: Pyricularia oryzae (PYRIOR)
Test: microbe, parasite or virus in culture
Assay type: cell-based
Details: 72 h, read-out: EC50 PYRIOR
Would you mind telling me the reported EC50 of each entry?
Quick reminder: number only, in µg/mL, skip the unit.

# input If you can, please state the reported EC50 value of CCC#CCn1nc(-c2ccc(Cl)c(F)n2)ccc1=O [drawing 114] .
# output 0.0236

# input If you can, please state the reported EC50 value of CCC#CCn1nc(-c2cccc(Cl)n2)ccc1=O [drawing 105] .
# output 1.4

# input If you can, please state the reported EC50 value of CCC#CCN1N=C(c2ccc(Cl)cn2)CCC1=O .
# output 0.021

# input If you can, please state the reported EC50 value of CC(C)(C)C#C/C=C/Cn1nc(-c2ccc(Cl)cn2)ccc1=O [drawing 112] .
# output 8.11

---

Molecular target: microsomal Δ-9 fatty acid desaturase (Saccharomyces cerevisiae)
Sequence (P21147 whole entry, stated change not applied): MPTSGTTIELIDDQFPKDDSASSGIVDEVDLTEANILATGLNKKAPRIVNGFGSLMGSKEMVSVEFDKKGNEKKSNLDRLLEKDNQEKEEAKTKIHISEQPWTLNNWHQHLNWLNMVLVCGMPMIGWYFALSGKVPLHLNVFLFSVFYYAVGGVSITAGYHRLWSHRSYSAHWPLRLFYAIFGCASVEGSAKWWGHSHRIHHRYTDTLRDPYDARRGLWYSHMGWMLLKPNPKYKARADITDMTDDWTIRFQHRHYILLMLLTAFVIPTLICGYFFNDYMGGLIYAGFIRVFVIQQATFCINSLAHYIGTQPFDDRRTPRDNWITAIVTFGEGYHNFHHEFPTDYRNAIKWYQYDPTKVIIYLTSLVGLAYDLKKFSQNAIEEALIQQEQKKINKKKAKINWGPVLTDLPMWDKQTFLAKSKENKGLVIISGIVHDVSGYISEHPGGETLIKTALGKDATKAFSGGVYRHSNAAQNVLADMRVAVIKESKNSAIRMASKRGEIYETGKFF
Assay: Inhibition of Δ-9 fatty acid desaturase (desaturation of 14C-palmitoyl-CoA to 14C-palmitoleic acid)
Conditions: I50, concentration inhibiting production of palmitoleic acid by 50%; yeast microsomes, 30° C., 5 min
reported.property: pIC50
On this scale, pIC50 is minus log10 of a concentration expressed in M (mol/L).

# input If you can, please state the reported pIC50 value of CCCOCCCC#CCn1nc(-c2ccc(Cl)cn2)ccc1=O .
# output 7.54

# input If you can, please state the reported pIC50 value of CCC#CCn1nc(-c2cccc(Cl)n2)ccc1=O [drawing 84] .
# output 4.21

# input If you can, please state the reported pIC50 value of CCCCCCCC#CCn1nc(-c2ncc(Br)cn2)ccc1=O .
# output 7.06

# input If you can, please state the reported pIC50 value of CCC#CCn1nc(-c2ccc(Cl)c(Cl)n2)ccc1=O [drawing 85] .
# output 6.58

---

Test system: Colletotrichum lagenarium (COLLLA)
Assay: Activity towards plant pathogenic fungi, growth inhibition in microtiter plates
Assay type: cell-based
Conditions: Colletotrichum orbiculare; 50% inhibition of growth; 25° C., 72 h, NepheloStar plate reader; read-out: EC50 COLLLA
reported.property: EC50

# input If you can, please state the reported EC50 value of CCC#CCn1nc(-c2ncccc2Cl)ccc1=O [drawing 109] .
# output > 40 µg/mL

# input If you can, please state the reported EC50 value of CCC#CCN1N=C(c2ncccc2Cl)CCC1=O [drawing 108] .
# output > 40 µg/mL

# input If you can, please state the reported EC50 value of CC(C)(C)C#C/C=C/Cn1nc(-c2ccc(Cl)cn2)ccc1=O [drawing 112] .
# output > 40 µg/mL
